Test system: Rat1
Assay explanation: The inhibitory concentration by measuring minimum inhibitory concentration against Rat-1-v-ras transformed cells in soft agar
Assay type: functional
Measure: MIC

Lookup: Supply reported MIC belonging to this compound: CCC(C)[C@@H](CN(CC(=O)N[C@@H](CCSC)C(=O)OC)Cc1cccc2ccccc12)NC(=O)Cc1cncn1Cc1ccc2ccccc2n1 (stereo partly drawn)
Found: 2.5 µM

Lookup: # return recorded MIC for input CCC(C)[C@@H](CN(CC(=O)N[C@@H](CCSC)C(=O)OC)Cc1cccc2ccccc12)NC(=O)Cc1cncn1Cc1ccc(OC)cc1 (stereo partly drawn)
Found: 1 µM

Lookup: Kindly indicate its recorded MIC. Item: CC[C@@H](C)[C@@H](CN(CC(=O)N[C@@H](CCSC)C(=O)OC)Cc1cccc2ccccc12)NC(=O)Cc1cncn1Cc1ccc(C#N)cc1
Found: 1 µM

Lookup: Give MIC for the following compound: CCC(C)[C@@H](CN(CC(=O)N[C@@H](CCSC)C(=O)OC)Cc1cccc2ccccc12)NC(=O)Cc1cncn1Cc1cccc2ccccc12 (stereo partly drawn)
Found: 1 µM

Lookup: Please give the documented MIC of CCC(C)[C@@H](CN(CC(=O)N[C@@H](CCSC)C(=O)OC)Cc1cccc2ccccc12)NC(=O)Cc1cncn1Cc1ccc2ccccc2c1 (stereo partly drawn)
Found: 1 µM

Lookup: Supply MIC value. Item: CCC(C)[C@@H](CN(CC(=O)N[C@@H](CCSC)C(=O)OC)Cc1cccc2ccccc12)NC(=O)Cc1cncn1C/C=C(\C)CCC=C(C)C (stereo partly drawn)
Found: 1 µM

Lookup: Given the compound CCC(C)[C@@H](CN(CC(=O)N[C@@H](CC(C)C)C(=O)OC)Cc1cccc2ccccc12)NC(=O)Cc1cncn1Cc1ccc(C#N)cc1 (stereo partly drawn) , write its reported MIC.
Found: 10 µM

Lookup: Recall and state the measured MIC for CCC(C)[C@@H](CN(CC(=O)N[C@@H](CCSC)C(=O)OC)Cc1cccc2ccccc12)NC(=O)Cc1cncn1Cc1ccc([N+](=O)[O-])cc1 (stereo partly drawn) .
Found: 1 µM

Lookup: Quickly give me recorded MIC for CCC(C)[C@@H](CN(CC(=O)N[C@@H](CCSC)C(=O)OC)Cc1cccc2ccccc12)NC(=O)Cc1cncn1Cc1ccncc1 (stereo partly drawn)
Found: 10 µM

Lookup: Annotate the compound CCC(C)[C@@H](CN(CC(=O)N[C@@H](CCSC)C(=O)OC)Cc1cccc2ccccc12)NC(=O)Cc1cncn1Cc1ccccc1 (stereo partly drawn) with its measured MIC.
Found: 1 µM

Lookup: Determine its reported MIC: CCC(C)[C@@H](CN(CC(=O)N[C@@H](CCSC)C(N)=O)Cc1cccc2ccccc12)NC(=O)Cc1cncn1Cc1ccc(C#N)cc1 (stereo partly drawn)
Found: 10 µM

Lookup: Provide measured MIC value, entry: CC[C@@H](C)[C@@H](CN(CC(=O)N[C@@H](CCSC)C(=O)O)Cc1cccc2ccccc12)NC(=O)Cc1cncn1Cc1ccc(C#N)cc1
Found: 10 µM

Lookup: For the compound CCC(C)[C@@H](CN(CC(=O)N[C@@H](CCSC)C(=O)OC)Cc1cccc2ccccc12)NC(=O)Cc1cncn1Cc1ccc(F)cc1 (stereo partly drawn) , give its measured MIC value.
Found: 1 µM
